- System: SW480
- test.name: TCF/Wnt firefly luciferase reporter signal relative to plate median (fraction of plate median); higher = higher Wnt reporter signal
- test.context: 5 µM; treatment time 24 h; reporter: 7TFP
Output 1 (yes) for TCF/Wnt firefly luciferase reporter signal not less than 1; output 0 (no) otherwise.

compound	class.label
C=CC[S+]([O-])C[C@H](N)C(=O)O (some centres not stated)	1 (yes)
O=C(O)[C@@H](O)[C@H](O)[C@H](O)[C@@H](O)C(=O)O	1 (yes)
C/C=C/CCC(=O)c1c(C)c(O)c(O)c(C)c1O [Sohirnone C]	1 (yes)
O=C(O)c1ccccc1OP(=O)(O)O	0 (no)
O=C(Oc1cccc2cccnc12)c1ccccc1	0 (no)
O=C(O)c1cc(=O)c2c(Cl)cc(Cl)cc2[nH]1	0 (no)
Clc1ccc2c(c1)C(N1CCNCC1)=Nc1ccccc1O2	0 (no)
CCOc1ccc(C(=O)c2ccc(O)c(O)c2O)cc1	1 (yes)

Field: next compound
Does TCF/Wnt firefly luciferase reporter signal meet or surpass 1 for CC(C(=O)O)c1cccc(C(=O)c2ccccc2)c1 (configuration not stated) ?
1 (yes)

---

- System: DLD1
- test.name: TCF/Wnt firefly luciferase reporter signal relative to plate median (fraction of plate median); higher = higher Wnt reporter signal
- test.context: 5 µM; treatment time 24 h; reporter: 7TFP
attribute.measured: TCF/Wnt firefly luciferase reporter signal

Example cases with answers are listed next.
molecule	experimental.result
O=C(N[C@H](CO)[C@H](O)c1ccc([N+](=O)[O-])cc1)C(Cl)Cl	1.09
CC(=O)N[C@@H](C=O)[C@@H](O)[C@H](O)[C@H](O)CO	1.18
CC(C)(C)NCC(O)COc1cccc2c1CC(O)C(O)C2 (stereo not given)	1.02
O.O.O.O.O=C([O-])CC(O)(CC(=O)[O-])C(=O)[O-].[Li+].[Li+].[Li+]	0.844
Cc1c(Cl)cccc1Nc1ccccc1C(=O)O	0.979
O=C(Oc1cc(O)cc2c1C[C@@H](OC(=O)c1cc(O)c(O)c(O)c1)[C@@H](c1cc(O)c(O)c(O)c1)O2)c1cc(O)c(O)c(O)c1	0.89
CN(C)CCC=C1c2ccccc2C=Cc2ccccc21	0.991
CC(=O)OCC(CCn1cnc2cnc(N)nc21)COC(C)=O	0.984
Cc1cc(=O)[nH]c(=S)[nH]1	1.07

Next, consider the following molecule.
Query CCCCCCCCCc1ccc(OCCOCCOCCOCCOCCOCCOCCOCCOCCO)cc1 yields TCF/Wnt firefly luciferase reporter signal of 1

---

Exercise: state measured cell viability for each of the compounds provided.
- Test system: DLD1
- test.name: cell viability (CellTiter-Glo) relative to plate median (fraction of plate median); higher = more viable cells
- test.context: 5 µM; treatment time 24 h; reporter: 7TFP
Answers are plain numbers.

compound	experimental.result
O=C(O)C(S)C(S)C(=O)O (stereo unspecified)	1.04

Below are some compounds; for each one, tell me its cell viability.
1. CC(C)[C@@H]1CC[C@@H](C)C[C@H]1OC(=O)c1ccccc1
2. Fc1ccc([C@@H]2CCNC[C@H]2COc2ccc3c(c2)OCO3)cc1
3. COc1ccc2cc([C@H](C)CO)ccc2c1
4. O=C(/C=C/c1ccc(O)c(O)c1)O[C@@H]1C[C@](O)(C(=O)O)C[C@@H](O)[C@H]1O
5. O=c1c(O)c(-c2ccccc2)oc2cccc(O)c12
6. COCC1=C(C(=O)OC(C)OC(=O)OC(C)C)N2C(=O)[C@@H](NC(=O)/C(=N\OC)c3csc(N)n3)[C@H]2SC1 (stereo partly specified)

1.01
0.977
0.939
0.981
1.03
1.07

Below are some compounds; for each one, tell me its cell viability.
1. O=C(C1CCCCC1)N1CC(=O)N2CCc3ccccc3C2C1 (stereo unspecified)
2. COC(=O)[C@H](c1ccccc1Cl)N1CCc2sccc2C1
3. CC(C)=CCC1=C(O)C(=O)c2ccccc2C1=O
4. O=S(=O)(O)c1cc(N=C=S)ccc1/C=C/c1ccc(N=C=S)cc1S(=O)(=O)O

0.996
1.04
1.05
0.952
